Reference for the values: patent US20260373138A1

Recorded MIC (ug/mL) (+) Fluc values for a group of compounds are listed next.
Test system: A. fumigatus CEA10 reference strain
runDescription: Fluconazole potentiator screen: MIC by CLSI microbroth dilution with and without fluconazole
Assay type: cell-based, Aspergillus fumigatus
measurementConditions: with 32 μg/ml fluconazole; normoxia; GMM, 18 h, 37 °C
quantityName: MIC (ug/mL) (+) Fluc (µg/mL)

• O=C(c1ccc(Cl)s1)N1CCC2(CC1)CC(CCOc1ccncc1)CCO2 (stereo not drawn) [MBX-8433] = 0.84
• O=S(=O)(c1ccoc1)N1CCC2(CC1)CC(CCOc1ccncc1)CCO2 (stereo not drawn) [MBX-7875] = 8.00
• O=C(c1ccsc1)N1CCC(Cc2ccc(COc3ccncc3)cn2)CC1 [MBX-8619] = 1.23
• O=S(=O)(c1ccc(Cl)cc1)N1CCC2(CC1)CC(CCOc1ccncc1)CCO2 (stereo not drawn) [MBX-7877] = 0.80
• O=C(c1ccsc1)N1CCC(Cc2ccc(COc3ccncc3)cc2)C1 (stereo not drawn) [MBX-8240] = 2.37
• N#Cc1ccc(C(=O)N2CCC(Cc3ccc(COc4ccncc4)cc3)CC2)cc1 [MBX-8088] = 14.50
• O=S(=O)(c1ccc(Cl)s1)N1CCC2(CC1)CC(CCOc1ccncc1)CCO2 (stereo not drawn) [MBX-7912] = 0.18
• O=C(c1ccc2c(c1)OCCO2)N1CCC(Cc2ccc(COc3ccncc3)cc2)CC1 [MBX-7772] = 12.60
• Cc1cc(CN2CCOCC2)ccc1CC1CCN(S(=O)(=O)c2ccc(F)cc2)CC1 [MBX-8346] = 0.15
• O=S(=O)(c1cscn1)N1CCC2(CC1)CC(CCOc1ccncc1)CCO2 (stereo not drawn) [MBX-7960] = 10.60
• O=S(=O)(c1ccc(C(F)(F)F)nc1)N1CCC(Cc2ccc(CN3CCOCC3)cc2)CC1 [MBX-8186] = 1.90
• O=C(c1cccs1)N1CCC2(CC1)CC(CCOc1ccncc1)CCO2 (stereo not drawn) [MBX-8394] = 9.70
• O=S(=O)(c1ccsc1)N1CC2(CC(CCOc3ccncc3)C2)C1 [MBX-8306] = 4.50

====

Tested on: A. fumigatus CEA10 reference strain
runDescription: Fluconazole potentiator screen: MIC by CLSI microbroth dilution with and without fluconazole
Format: cell-based, Aspergillus fumigatus
measurementConditions: with 32 μg/ml fluconazole; normoxia; GMM, 18 h, 37 °C
quantityName: MIC (ug/mL) (+) Fluc (µg/mL)

• O=C(c1ccsc1)N1CCc2cc(COc3ccncc3)ccc2C1 = 1.90
• O=C(c1cccc(F)c1)N1CCC(Cc2ccc(COc3ccncc3)cc2)CC1 = 8.09
• O=C(c1ccc(F)cc1)N1CCC(Cc2ccc(COc3ccncc3)cc2)CC1 = 8.09
• O=S(=O)(c1cccs1)N1CCC2(CC1)CN(CCOc1ccncc1)CCO2 = 5.20
• Cc1ccc(S(=O)(=O)N2CCC3(CC2)CC(CCOc2ccncc2)CCO3)cn1 (stereo not shown) = 3.81
• CN(C)Cc1ccc(CC2CCN(S(=O)(=O)c3ccc(F)cc3)CC2)cc1 = 0.78
• O=C(c1ccsc1)N1CCC(Cc2ccc(CCc3ccncc3)cc2)CC1 = 0.80
• Cn1nccc1S(=O)(=O)N1CCC2(CC1)CC(CCOc1ccncc1)CCO2 (stereo not shown) = 3.31
• O=S(=O)(c1ccsc1)N1CCC(Cc2ccc(COc3ccncc3)cc2)CC1 = 1.07
• CC(c1ccc(CC2CCN(S(=O)(=O)c3ccc(F)cc3)CC2)cc1)N1CCOCC1 (stereo not shown) = 5.60
• O=S(=O)(c1ccsc1)N1CCC2(CC1)CC(CCOc1ccncc1)CCO2 (stereo not shown) = 2.99
• O=S(=O)(c1ccc(F)cc1)N1CCC(Oc2ccc(CN3CCOCC3)cc2)CC1 = 1.36
• O=S(=O)(c1ccc(F)cc1)N1CCC(Cc2ccc(CN3CCOCC3)c(F)c2)CC1 = 0.09

====

Test system: A. fumigatus CEA10 reference strain
runDescription: Fluconazole potentiator screen: MIC by CLSI microbroth dilution with and without fluconazole
Assay type: cell-based, Aspergillus fumigatus
measurementConditions: with 32 μg/ml fluconazole; normoxia; GMM, 18 h, 37 °C
Recorded MIC (ug/mL) (+) Fluc values for a group of compounds are listed next.
quantityName: MIC (ug/mL) (+) Fluc (µg/mL)

• O=S(=O)(c1cccs1)N1CCC2(CC1)C[C@@H](CCOc1ccncc1)CCO2 = 1.32
• O=C(c1ccsc1)N1CCC(Cc2ccc(COc3cnc4scnc4c3)cc2)CC1 = 2.81
• O=S(=O)(c1ccsc1)N1CCc2cc(COc3ccncc3)ccc2C1 = 2.40

====

System: A. fumigatus CEA10 reference strain
runDescription: Fluconazole potentiator screen: MIC by CLSI microbroth dilution with and without fluconazole
Type: cell-based, Aspergillus fumigatus
measurementConditions: with 32 μg/ml fluconazole; normoxia; GMM, 18 h, 37 °C
Recorded MIC (ug/mL) (+) Fluc values for a group of compounds are listed next.
quantityName: MIC (ug/mL) (+) Fluc

* O=C(c1ccc2scnc2c1)N1CCC(Cc2ccc(COc3ccncc3)cc2)CC1 [MBX-8097] | >22 µg/mL
* O=C(c1ccsc1)N1CCC(Cc2ccc(C#Cc3ccncc3)cc2)CC1 [MBX-7963] | >77 µg/mL
* O=C(c1ccc(C(F)(F)F)nc1)N1CCC(Cc2ccc(COc3ccncc3)cc2)CC1 [MBX-8089] | >20 µg/mL
* O=S(=O)(c1cccs1)N1CCC2(CC1)CC(CCO)CCO2 (centres unmarked) [MBX-8248] | >17 µg/mL
* CC(c1ccsc1)N1CCC(Cc2ccc(COc3ccncc3)cc2)CC1 (centres unmarked) [MBX-7821] | >15 µg/mL
* O=S(=O)(NC1CCC(Cc2ccc(CN3CCOCC3)cc2)CC1)c1ccc(F)cc1 (centres unmarked) [MBX-8283] | >22 µg/mL
* c1csc(CN2CCC3(CC2)CC(CCOc2ccncc2)CCO3)c1 (centres unmarked) [MBX-7955] | >74 µg/mL
* O=S(=O)(c1cccs1)N1CCC2(CCc3cc(Oc4ccncc4)ccc3O2)CC1 [MBX-8435] | >22 µg/mL
* O=S(=O)(NC1CCN(Cc2ccc(CN3CCOCC3)cc2)CC1)c1ccc(F)cc1 [MBX-8284] | >22 µg/mL
* O=S(=O)(c1ccc(F)cc1)N1CCC(Cc2ccc(CN3CCN(CC(F)(F)F)CC3)cc2)CC1 [MBX-8438] | >25 µg/mL
* O=S(=O)(c1cccc(F)c1)N1CCC(Cc2ccc(CN3CC4CC(C3)O4)cc2)CC1 [MBX-8221] | >22 µg/mL
* O=C(c1ccsc1)N1CCC(Cc2ccc(COc3ccnc(O)c3)cc2)CC1 [MBX-8185] | >20 µg/mL
* c1cc(OCc2ccc(CC3CCN(Cc4ccsc4)CC3)cc2)ccn1 [MBX-7806] | >15 µg/mL
* O=S(=O)(c1cccc(F)c1)N1CCN(Cc2ccc(CN3CCOCC3)cc2)CC1 [MBX-8189] | >21 µg/mL

====

Tested on: A. fumigatus CEA10 reference strain
runDescription: Fluconazole potentiator screen: MIC by CLSI microbroth dilution with and without fluconazole
Assay type: cell-based, Aspergillus fumigatus
measurementConditions: with 32 μg/ml fluconazole; normoxia; GMM, 18 h, 37 °C
quantityName: MIC (ug/mL) (+) Fluc (µg/mL)

- O=S(=O)(N1CCOCC1)N1CCC2(CC1)CC(CCOc1ccncc1)CCO2 (stereo not drawn): 13.40
- O=C(c1ccsc1)N1CC2(CC(CCOc3ccncc3)C2)C1: 2.05
- O=S(=O)(NC1CC2(CC(Cc3ccc(CN4CCOCC4)cc3)C2)C1)c1ccc(F)cc1 (stereo not drawn): 22.00
- O=S(=O)(c1ccc(F)cc1)N1CCC(Cc2ccc(CN3CCn4cncc4C3)cc2)CC1: 1.30

====

System: A. fumigatus CEA10 reference strain
runDescription: Fluconazole potentiator screen: MIC by CLSI microbroth dilution with and without fluconazole
Type: cell-based, Aspergillus fumigatus
measurementConditions: with 32 μg/ml fluconazole; normoxia; GMM, 18 h, 37 °C
quantityName: MIC (ug/mL) (+) Fluc

• O=C(c1ccc2sccc2c1)N1CCC(Cc2ccc(COc3ccncc3)cc2)CC1 = >22 µg/mL
• CC(c1cccs1)N1CCC2(CC1)CC(CCOc1ccncc1)CCO2 (centres unmarked) = >77 µg/mL
• O=C(c1ccsc1)N1CCC(Cc2ccc(COc3ccc4scnc4c3)cc2)CC1 = >19 µg/mL
• O=C(c1ccsc1)N1CCC(Cc2ccc(COc3ccnc(Cl)c3)cc2)CC1 = >21 µg/mL
• O=C(O)c1ccc(C(=O)N2CCC(Cc3ccc(COc4ccncc4)cc3)CC2)cc1 = >21 µg/mL
• O=C(Nc1ccsc1)N1CCC(Cc2ccc(COc3ccncc3)cc2)CC1 = >16 µg/mL
• COc1ccccc1S(=O)(=O)N1CCC2(CC1)CC(CCOc1ccncc1)CCO2 (centres unmarked) = >89 µg/mL
• O=C(c1ccc(C(F)(F)F)nc1)N1CCC(Cc2ccc(CN3CCOCC3)cc2)C1 (centres unmarked) = >43 µg/mL
